TARGET_OF_ASSAY: D(2) dopamine receptor (Homo sapiens)
Sequence (P14416 whole entry): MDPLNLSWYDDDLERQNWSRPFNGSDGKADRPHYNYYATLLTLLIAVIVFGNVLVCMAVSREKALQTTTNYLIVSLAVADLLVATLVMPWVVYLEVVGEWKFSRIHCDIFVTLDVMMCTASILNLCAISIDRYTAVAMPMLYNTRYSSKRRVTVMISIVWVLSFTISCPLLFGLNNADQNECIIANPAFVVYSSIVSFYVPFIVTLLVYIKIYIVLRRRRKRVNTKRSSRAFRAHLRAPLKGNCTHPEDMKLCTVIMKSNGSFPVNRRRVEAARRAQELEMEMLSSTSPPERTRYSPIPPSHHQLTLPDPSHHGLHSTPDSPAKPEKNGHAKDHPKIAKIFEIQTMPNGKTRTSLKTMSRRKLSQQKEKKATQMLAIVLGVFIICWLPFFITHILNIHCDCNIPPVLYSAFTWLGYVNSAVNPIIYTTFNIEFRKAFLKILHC
PROTOCOL_SUMMARY: Agonist activity at human dopamine D2L receptor expressed in CHO cell membranes after 1 hr by [35S]-GTPgammaS binding assay relative to 100 uM quinelorane
Assay type: functional
MEASURED_ATTRIBUTE: Emax (%)
Answer format: numeric, % implied, no suffix.

CCCN(CCCNC(=O)CCC(=O)NCCCN(CCC)CCc1cccc2c1CC(=O)N2)CCc1cccc2c1CC(=O)N2 : 94
CCCCCCCCCC(=O)NCCCN(CCC)CCc1cccc2c1CC(=O)N2 : 78
CCCN(CCCNC(=O)CCCCCCCCCCCCCCCCCCC(=O)NCCCN(CCC)CCc1cccc2c1CC(=O)N2)CCc1cccc2c1CC(=O)N2 : 58

Please turn your attention to the following entry.
Req: Endpoint output: Emax of "CCCN(CCCNC(=O)CCCCCCCCCCCCCCC(=O)NCCCN(CCC)CCc1cccc2c1CC(=O)N2)CCc1cccc2c1CC(=O)N2" . Value?
Resp: 85
